Data provenance: patent US20030134859A1

- Tested on: Rat white adipocytes
- measurement-description: Inhibition of the differentiation of adipocytes (Oil Red O)
- Format: cell-based
- run-parameters: Rattus norvegicus, Adipocyte, 120 h, 100 nM test compound; 5 days; Oil Red O ABS550; control = 100%, blank = 0%; Table 3; read-out: Rate of Differentiation (%)
Think of 50% as a floor: if activity at 0.1 µM stands on it or above, it is Met; beneath it, Not met.

smiles-repr | label
O=C(Nc1cccc([N+](=O)[O-])c1)c1cc([N+](=O)[O-])ccc1Cl | Met

Evaluate CCCNc1ccc(-c2ccc(NC(=O)c3cc([N+](=O)[O-])ccc3Cl)cc2)cc1 : activity at 0.1 µM at minimum 50%?
Not met

Evaluate O=C(Nc1ccc(CCNC(=S)Nc2ccccc2)cc1)c1cc([N+](=O)[O-])ccc1Cl : activity at 0.1 µM at minimum 50%?
Met

Evaluate CCCCCCN(CCCCCC)c1ccc(-c2ccc(NC(=O)c3cc([N+](=O)[O-])ccc3Cl)cc2)cc1 : activity at 0.1 µM at minimum 50%?
Not met

Evaluate O=C(Nc1ccc([N+](=O)[O-])cc1)c1cc([N+](=O)[O-])ccc1Cl : activity at 0.1 µM at minimum 50%?
Met

Evaluate CCCCCN(CCC)c1ccc(-c2ccc(NC(=O)c3cc([N+](=O)[O-])ccc3Cl)cc2)cc1 : activity at 0.1 µM at minimum 50%?
Not met

Evaluate CCCCCNc1ccc(-c2ccc(NC(=O)c3cc([N+](=O)[O-])ccc3Cl)cc2)cc1 : activity at 0.1 µM at minimum 50%?
Not met

Evaluate CC(C)(C)OC(=O)Nc1ccc(-c2csc(NC(=O)c3cc([N+](=O)[O-])ccc3Cl)n2)cc1 : activity at 0.1 µM at minimum 50%?
Met

---

- Tested on: Balb/c mice
- measurement-description: Prevention of concanavalin A liver injury
- Type: in vivo, mouse
- run-parameters: Mus musculus, po, 24 h, 10 mg/mL suspension at 10 mL/kg, 30 min prior to Con A, plasma 24 hr after Con A, read-out: Preventing rate against liver injury, AST (%)
Counter-ions that a name gives are not always drawn.
quantity: inhibition in vivo at 10000 µg/mL, 100 mg/kg (%)
All answers are understood in %, so give the number only.

Past entries and their recorded results:
compound | units-of-measure | value-measured
CC(C)(C)c1cc(NS(=O)(=O)c2cccc(NC(=O)c3cc([N+](=O)[O-])ccc3Cl)c2)cc(C(C)(C)C)c1O | % | 69.3
O=C(Nc1ccc(-c2ccccc2)cc1)c1cc([N+](=O)[O-])ccc1Cl | % | 4.1

Value of inhibition in vivo at 10000 µg/mL, 100 mg/kg reported for the compound Nc1ccc(-c2ccc(NC(=O)c3cc([N+](=O)[O-])ccc3Cl)cc2)cc1 [Example 88, mono-hydrochloride] is 57

---

- Tested on: Rat white adipocytes
- measurement-description: Inhibition of the differentiation of adipocytes (Oil Red O)
- Assay type: cell-based
- run-parameters: Rattus norvegicus, Adipocyte, 120 h, 100 nM test compound; 5 days; Oil Red O ABS550; control = 100%, blank = 0%; Table 3; read-out: Rate of Differentiation (%)
quantity: activity at 0.1 µM (%)
All answers are understood in %, so give the number only.

molecule | quantity | units-of-measure | value-measured
CCNc1ccc(-c2ccc(NC(=O)c3cc([N+](=O)[O-])ccc3Cl)cc2)cc1 | activity at 0.1 µM | % | 39.8

Value of activity at 0.1 µM reported for the molecule CCCCCCN(C)c1ccc(-c2ccc(NC(=O)c3cc([N+](=O)[O-])ccc3Cl)cc2)cc1 is 53.4

Value of activity at 0.1 µM reported for the molecule Nc1cccc(-c2csc(NC(=O)c3cc([N+](=O)[O-])ccc3Cl)n2)c1 is 55.7

Value of activity at 0.1 µM reported for the molecule CS(=O)(=O)N(c1ccc(-c2ccc(NC(=O)c3cc([N+](=O)[O-])ccc3Cl)cc2)cc1)S(C)(=O)=O is 3.6

Value of activity at 0.1 µM reported for the molecule Nc1nc(-c2cccc(NC(=O)c3cc([N+](=O)[O-])ccc3Cl)c2)cs1 is 47.4

Value of activity at 0.1 µM reported for the molecule CC(O)c1ccc(NC(=O)c2cc([N+](=O)[O-])ccc2Cl)cc1 (stereo not shown) is 64

Value of activity at 0.1 µM reported for the molecule CCN(CC)c1ccc(-c2ccc(NC(=O)c3cc([N+](=O)[O-])ccc3Cl)cc2)cc1 is 21
